Assay: in vitro
Details: rat, plasma
readout: fraction unbound at 4 h, 5 µM
# output: bare number, no unit

// recorded fraction unbound at 4 h, 5 µM for O=C(Nc1ccc(F)cn1)c1cc(Oc2cncc(F)c2)cn2ncnc12 : 0.066

* * *

Test: Mean residence time in rat at 1 mg/kg, iv
Type: ADME, organism-based
Settings: in vivo
readout: MRT (min)
Numbers only; they are read as min.

// recorded MRT for Cc1csc(NC(=O)c2cc(C(=O)c3cncnc3)cc3cccnc23)n1 : 19

* * *

Target: UniProtKB P31424
Assay: Negative allosteric modulator activity at rat mGlu5 receptor expressed in HEK293A cells assessed as inhibition of EC80 glutamate-induced Ca2+ mobilization by Fluo-4 AM dye based fluorescence assay
readout: IC50 (nM)
Numbers only; they are read as nM.

// recorded IC50 for O=C(Nc1ccc(F)cn1)c1cc(C(F)(F)c2cncnc2)cc2cccnc12 : 392

// recorded IC50 for Cc1csc(NC(=O)c2cc(C(F)c3cncnc3)cc3cccnc23)n1 (stereo not given) : 378

// recorded IC50 for O=C(Nc1ccc(F)cn1)c1cc(C(F)c2cncnc2)cc2cccnc12 (stereo not given) : 217

// recorded IC50 for Cc1cccc(NC(=O)c2cc(C(=O)c3cncnc3)cc3cccnc23)n1 : 417

// recorded IC50 for COc1cccc(NC(=O)c2cc(C(F)(F)c3cncnc3)cc3cccnc23)n1 : 1610

* * *

Readings of %max for the listed compounds
Target: Metabotropic glutamate receptor 5 (Rattus norvegicus)
Assay: Negative allosteric modulator activity at rat mGlu5 receptor expressed in HEK293A cells assessed as EC80 glutamate-induced maximum Ca2+ mobilization response at 30 uM relative to 100 uM glutamate by Fluo-4 AM dye based fluorescence assay
Assay type: functional, cell-based
Numbers only; they are read as %.

Answered examples (5):
compound	%max (%)
COc1cccc(NC(=O)c2cc(C(F)(F)c3cncnc3)cc3cccnc23)n1	7.1
O=C(Nc1ccc(F)cn1)c1cc(C(F)c2cncnc2)cc2cccnc12 (configuration not stated)	1.5
Cc1csc(NC(=O)c2cc(C(C)c3cncnc3)cc3cccnc23)n1 (configuration not stated)	1.4
O=C(Nc1ccc(F)cn1)c1cc(C(F)(F)c2cncnc2)cc2cccnc12	4.5
CCc1cccc(NC(=O)c2cc(C(F)(F)c3cncnc3)cc3cccnc23)n1	7.8

// recorded %max for Cc1ccc(NC(=O)c2cc(C(F)(F)c3cncnc3)cc3cccnc23)nc1 : 3

// recorded %max for O=C(Nc1nc(C2CC2)cs1)c1cc(C(F)(F)c2cncnc2)cc2cccnc12 : 3

* * *

Assay: Metabolic stability in human hepatic S9 fraction assessed as NADPH dependent metabolism incubated for 60 mins by LC/MS analysis
Assay type: ADME, subcellular, Liver
Settings: read-out: Drug metabolism
readout: metabolised at 1 h (%)
Numbers only; they are read as %.

// recorded metabolised at 1 h for Cc1csc(NC(=O)c2cc(C(F)c3cncnc3)cc3cccnc23)n1 (stereo unspecified) : 27

* * *

Target: Metabotropic glutamate receptor 5 (Rattus norvegicus)
Test: Negative allosteric modulator activity at rat mGlu5 receptor expressed in HEK293A cells assessed as inhibition of EC80 glutamate-induced Ca2+ mobilization by Fluo-4 AM dye based fluorescence assay
Readings of pIC50 for the listed molecules
Formally, pIC50 is defined as -log10 of the concentration c, with c in mol/L.

Answered examples (3):
molecule	pIC50
Cc1csc(NC(=O)c2cc(C(=O)c3cncnc3)cc3cccnc23)n1	6.76
Cc1csc(NC(=O)c2cc(C(C)c3cncnc3)cc3cccnc23)n1 (configuration not stated)	6.23
O=C(c1cncnc1)c1cc(C(=O)Nc2ccc(F)cn2)c2ncccc2c1	6.07

The measured pIC50 that Cc1ccc(NC(=O)c2cc(C(F)(F)c3cncnc3)cc3cccnc23)nc1 showed for Metabotropic glutamate receptor 5 (Rattus norvegicus) is 6.17

The measured pIC50 that O=C(Nc1nc(C2CC2)cs1)c1cc(C(F)(F)c2cncnc2)cc2cccnc12 showed for Metabotropic glutamate receptor 5 (Rattus norvegicus) is 6.25

The measured pIC50 that CC(c1cncnc1)c1cc(C(=O)Nc2ccc(F)cn2)c2ncccc2c1 (configuration not stated) showed for Metabotropic glutamate receptor 5 (Rattus norvegicus) is 5.82

The measured pIC50 that COC(c1cncnc1)c1cc(C(=O)Nc2nc(C)cs2)c2ncccc2c1 (configuration not stated) showed for Metabotropic glutamate receptor 5 (Rattus norvegicus) is 5.76

* * *

Assay: Volume of distribution at steady state in rat at 1 mg/kg, iv
Format: ADME, organism-based
Conditions: in vivo, read-out: Vdss
readout: Vd (L/kg)
Numbers only; they are read as L/kg.

// recorded Vd for Cc1csc(NC(=O)c2cc(C(=O)c3cncnc3)cc3cccnc23)n1 : 50

* * *

Test: in vitro
Conditions: human, plasma
readout: fraction unbound at 4 h, 5 µM

// recorded fraction unbound at 4 h, 5 µM for O=C(Nc1ccc(F)cn1)c1cc(Oc2cncc(F)c2)cn2ncnc12 : 0.071

* * *

Readings of pIC50 for the listed compounds
Molecular target: Metabotropic glutamate receptor 5 (Rattus norvegicus, UniProt P31424)
Sequence (P31424 whole entry): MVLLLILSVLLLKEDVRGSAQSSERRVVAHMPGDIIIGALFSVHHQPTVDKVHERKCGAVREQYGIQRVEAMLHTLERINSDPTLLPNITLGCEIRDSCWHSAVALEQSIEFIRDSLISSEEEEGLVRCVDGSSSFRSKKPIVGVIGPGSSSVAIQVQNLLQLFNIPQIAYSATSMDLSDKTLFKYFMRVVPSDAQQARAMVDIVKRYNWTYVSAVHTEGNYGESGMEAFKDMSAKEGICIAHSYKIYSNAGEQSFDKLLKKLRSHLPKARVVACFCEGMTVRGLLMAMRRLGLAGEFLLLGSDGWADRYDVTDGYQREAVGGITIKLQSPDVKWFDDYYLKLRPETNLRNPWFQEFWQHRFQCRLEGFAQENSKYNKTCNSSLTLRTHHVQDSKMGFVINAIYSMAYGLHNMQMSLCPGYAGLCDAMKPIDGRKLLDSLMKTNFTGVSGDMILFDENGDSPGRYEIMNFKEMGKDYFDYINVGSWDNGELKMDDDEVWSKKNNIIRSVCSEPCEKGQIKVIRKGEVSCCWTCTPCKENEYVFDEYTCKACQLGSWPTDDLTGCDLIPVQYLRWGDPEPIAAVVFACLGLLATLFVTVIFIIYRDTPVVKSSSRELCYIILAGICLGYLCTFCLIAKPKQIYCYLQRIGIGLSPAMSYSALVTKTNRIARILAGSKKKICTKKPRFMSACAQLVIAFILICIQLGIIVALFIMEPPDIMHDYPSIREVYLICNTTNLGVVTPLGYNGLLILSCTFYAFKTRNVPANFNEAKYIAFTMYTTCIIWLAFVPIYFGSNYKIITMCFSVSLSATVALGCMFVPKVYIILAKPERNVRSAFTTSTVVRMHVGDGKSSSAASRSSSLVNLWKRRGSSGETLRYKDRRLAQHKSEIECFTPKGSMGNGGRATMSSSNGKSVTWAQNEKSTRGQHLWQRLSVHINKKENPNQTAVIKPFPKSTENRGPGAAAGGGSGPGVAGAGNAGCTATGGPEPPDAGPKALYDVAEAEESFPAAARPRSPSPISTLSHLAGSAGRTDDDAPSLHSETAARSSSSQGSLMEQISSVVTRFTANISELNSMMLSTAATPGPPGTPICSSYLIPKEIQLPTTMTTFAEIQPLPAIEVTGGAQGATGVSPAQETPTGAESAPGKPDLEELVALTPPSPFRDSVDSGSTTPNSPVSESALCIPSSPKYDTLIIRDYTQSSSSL
Experiment: Negative allosteric modulator activity at rat mGlu5 receptor expressed in HEK293A cells assessed as inhibition of EC80 glutamate-induced Ca2+ mobilization by Fluo-4 AM dye based fluorescence assay
Assay type: functional, cell-based
Formally, pIC50 is defined as -log10 of the concentration c, with c in mol/L.

Answered examples (3):
compound	measurement.target	readout	assay.result
CCc1cccc(NC(=O)c2cc(C(F)(F)c3cncnc3)cc3cccnc23)n1	Metabotropic glutamate receptor 5 (Rattus norvegicus, UniProt P31424)	pIC50	5.44
COC(c1cncnc1)c1cc(C(=O)Nc2ccc(F)cn2)c2ncccc2c1 (stereo not given)	Metabotropic glutamate receptor 5 (Rattus norvegicus, UniProt P31424)	pIC50	5.46
Cc1cccc(NC(=O)c2cc(C(F)(F)c3cncnc3)cc3cccnc23)n1	Metabotropic glutamate receptor 5 (Rattus norvegicus, UniProt P31424)	pIC50	5.96

Next item in the queue.
// recorded pIC50 for O=C(Nc1ccc(F)cn1)c1cc(Oc2cncc(F)c2)cc2cccnc12 : 8.10

* * *

Readings of pIC50 for the listed compounds
Target: Metabotropic glutamate receptor 5 (Rattus norvegicus)
Test: Negative allosteric modulator activity at rat mGlu5 receptor expressed in HEK293A cells assessed as inhibition of EC80 glutamate-induced Ca2+ mobilization by Fluo-4 AM dye based fluorescence assay
pIC50: −log10 of the molar value.

Answered examples (3):
compound	pIC50
Cc1csc(NC(=O)c2cc(C(O)c3cncnc3)cc3cccnc23)n1 (stereo unspecified)	< 5.00
N#Cc1ccnc(NC(=O)c2cc(C(F)(F)c3cncnc3)cc3cccnc23)c1	< 4.52
Cc1ccnc(NC(=O)c2cc(C(F)(F)c3cncnc3)cc3cccnc23)c1	< 5.00

// recorded pIC50 for O=C(c1cncnc1)c1cc(C(=O)Nc2cccc(F)n2)c2ncccc2c1 : < 5.00

// recorded pIC50 for N#Cc1ccc(NC(=O)c2cc(C(F)(F)c3cncnc3)cc3cccnc23)nc1 : < 4.52

// recorded pIC50 for COc1ccnc(NC(=O)c2cc(C(F)(F)c3cncnc3)cc3cccnc23)c1 : < 4.52
